Recorded Triple point temperature by entry
Settings: Crystal 1; DTA
The reply should be a number in K, with the unit left off.

CCCCCCCCCCCCCCCCCCO :: 331.82
CCCCCCCCCCCCCC(=O)O :: 328.13
CCCCCCCCCCCCCCO :: 311.39
CCCCCCCCCCCCCCCCO :: 323.17

Exam item: Bench note: what Triple point temperature did CCCCCCCCCCCC(=O)O show?
Marked response: 318.29
